Some binders, each annotated with its measured stoichiometry N.
- study system: T1, eIF4E (residues 69–248) II-AA, purified (Drosophila melanogaster, UniProt P48598-2 69-248, Ile96 to Ala (II-AA) | Ile112 to Ala (II-AA))
- T1 construct: eIF4E, Drosophila melanogaster, residues 69–248; also called eIF4E (II-AA); not shown: His6, N-terminal, cleaved
- T1 sequence (looked up): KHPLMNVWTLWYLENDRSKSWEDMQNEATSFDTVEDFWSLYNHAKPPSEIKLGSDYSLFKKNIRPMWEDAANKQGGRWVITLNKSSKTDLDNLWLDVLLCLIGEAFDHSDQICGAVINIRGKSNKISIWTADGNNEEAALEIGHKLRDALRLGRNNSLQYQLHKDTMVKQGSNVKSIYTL
- assay explanation: ITC; VP-ITC, 20 °C; eIF4E (69–248, WT or mutant, 1–20 μM) in the cell, tenfold concentrated GB1-stabilized peptides titrated in; 20 mM Na-phosphate pH 7.0, 150 mM NaCl; one-site binding model
- assay conditions: both partners purified
// no unit, no text: just the number

In: stoichiometry N for eIF4G peptide (residues 578–650) fused C-terminally to GB1 (domain or fragment, Drosophila melanogaster, UniProt O61380 578-650, looked up, eIF4G, Drosophila melanogaster, residues 578–650 (methods and legends); source: E. coli BL21 Star (DE3), purified (amylose, TEV cleavage, anion exchange, SEC); not shown: MBP, N-terminal, cleaved; GB1, C-terminal, kept) PETTLNDKQDSTDLKVKVSAKISSIINYNEGQWSPNNPSGKKQYDREQLLQLREVKASRIQPEVKNVSILPQP ?
Out: 1.03
